EXPERIMENTAL_SYSTEM: β-lactamase of Enterobacter cloacae P99 (Enterobacter cloacae, UniProt P05364)
Sequence (P05364 21-381): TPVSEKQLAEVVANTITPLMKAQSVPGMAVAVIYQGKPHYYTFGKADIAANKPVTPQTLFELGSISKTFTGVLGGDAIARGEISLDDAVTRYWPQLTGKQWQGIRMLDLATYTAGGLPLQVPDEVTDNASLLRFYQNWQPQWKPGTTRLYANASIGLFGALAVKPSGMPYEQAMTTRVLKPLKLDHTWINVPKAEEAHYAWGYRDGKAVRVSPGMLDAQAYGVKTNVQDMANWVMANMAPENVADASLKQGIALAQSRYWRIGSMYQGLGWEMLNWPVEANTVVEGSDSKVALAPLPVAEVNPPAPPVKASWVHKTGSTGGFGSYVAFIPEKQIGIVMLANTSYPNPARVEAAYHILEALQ
PROTOCOL_DETAILS: P99 β-lactamase inhibitory activity (loss of nitrocefin hydrolysis by free enzyme)
Format: biochemical
RUN_PARAMETERS: P99 β-lactamase; 10 minute incubation of enzyme (2.56 nM) and inhibitor (<0.64 mM), then dilution into nitrocefin solution, rate over 1 minute; read-out: IC50 (converted)
MEASURE: IC50 (µM)
# unit: µM | format: bare number

Req: Using the record for C=C=C1C(=O)N2C(C(=O)O)=C(COC(C)=O)CS[C@H]12 , report its IC50.
Resp: 91.8

Req: Using the record for CC(=O)OCC1=C(C(=O)O)N2C(=O)C(=C=CC(C)(C)C)[C@H]2SC1 , report its IC50.
Resp: 11.6

Req: Using the record for C=C=C1C(=O)N2C(C(=O)O)=C(COC(C)=O)CS(=O)(=O)[C@H]12 , report its IC50.
Resp: 0.351

Req: Using the record for CC(C)(C)C=C=C1C(=O)N2[C@@H](C(=O)O)C(C)(C)S(=O)(=O)[C@H]12 [6-(2'α-t-butylvinylidene) penam sulfone, reference compound] , report its IC50.
Resp: 1.24
